Target: recombinant MmedCSP3 (Microplitis mediator, UniProt A0A219T7S8)
Sequence (A0A219T7S8 entry or part of it): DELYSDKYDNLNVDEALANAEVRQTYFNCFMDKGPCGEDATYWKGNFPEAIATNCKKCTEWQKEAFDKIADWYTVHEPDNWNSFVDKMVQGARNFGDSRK
Test: biochemical
Conditions: 2 μM protein titrated with bis-ANS 2–16 μM, 50 mM Tris-HCl pH 7.4; read-out: dissociation constant of the MmedCSP3 / bis-ANS complexes
quantity-kind: pKd
Scale explanation: pKd corresponds to minus log10 of a concentration expressed in moles per litre.

Per the record, O=S(=O)(O)c1cccc2c(-c3ccc(Nc4ccccc4)c4c(S(=O)(=O)O)cccc34)ccc(Nc3ccccc3)c12 [bis-ANS, reference compound] has pKd of 5.76

====

Molecular target: recombinant MmedCSP3 (Microplitis mediator, UniProt A0A219T7S8)
Test: biochemical
Format: binding
Settings: protein and bis-ANS at 2 μM, competitor 2–40 μM, 50 mM Tris-HCl pH 7.4; mean ± SD; text values are ranges over the named group; read-out: Ki, dissociation constant
Exercise: state measured Ki for each of the molecules provided.
Give just the numeric value; µM need not be written.

Per the record, C=C/C=C(\C)CC/C=C(\C)CCC=C(C)C [TMTT] has Ki of 26.8

Per the record, CCCC(=O)OCC [Ethyl butyrate] has Ki of 32.9

Per the record, CCCCCCCC/C=C\CCCCCCCC(=O)O [Octadecenoic acid] has Ki of 18.2

Per the record, CCCC/C=C\CCCCCCCCCCO [cis-11-hexadecanol] has Ki of 17.6

Per the record, CC/C=C/CCCCCCCCCCOC(C)=O [trans-11-tetradecenyl acetate] has Ki of 18.8

Per the record, CCCC/C=C\CCCCCCCCCC=O [cis-11-hexadecenyl Aldehyde, cis-11-hexadecenyl aldehyde] has Ki of 17.2
